molecular target: Alpha-2C adrenergic receptor (Homo sapiens) (UniProt P18825); assay: compounds altering alpha2C-coupled GIRK flux – cell-based, HEK293 alpha2C/GIRK1/2, thallium flux, primary screen (AID 624); settings: thallium flux BTC fluorescence, at 10 µM, actives lie on both sides;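 further: slope of fluorescence ratio to pre-addition baseline per second over 15 to 24 s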
Sequence (P18825 whole entry, looked up): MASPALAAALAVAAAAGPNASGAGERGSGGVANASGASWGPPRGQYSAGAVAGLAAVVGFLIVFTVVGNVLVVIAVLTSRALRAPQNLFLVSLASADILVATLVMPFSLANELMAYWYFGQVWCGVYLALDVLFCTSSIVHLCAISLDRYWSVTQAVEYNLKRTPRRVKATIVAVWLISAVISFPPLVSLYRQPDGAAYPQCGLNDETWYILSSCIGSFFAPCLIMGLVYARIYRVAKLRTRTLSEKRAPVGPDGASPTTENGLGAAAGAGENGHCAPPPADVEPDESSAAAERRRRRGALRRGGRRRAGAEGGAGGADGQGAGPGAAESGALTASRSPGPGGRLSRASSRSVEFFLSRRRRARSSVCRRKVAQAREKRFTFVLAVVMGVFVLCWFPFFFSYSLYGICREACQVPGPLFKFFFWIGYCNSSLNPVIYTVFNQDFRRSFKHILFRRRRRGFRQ
Kindly supply the reported slope values for the records listed here.
Answer as a number with no unit attached.

Just so you know, measured slope for O=C(Nc1ccc(Cl)c(C(F)(F)F)c1)N1CCCC(O)C1 (centres undefined) came out at 0.00599

Just so you know, measured slope for COc1ccc(NC(=O)CN(c2ccc(C(C)C)cc2)S(=O)(=O)c2c(C)noc2C)cc1OC came out at 0.00605

Just so you know, measured slope for COc1ccccc1OCCCCNCCO came out at 0.00597

Just so you know, measured slope for COc1ccc(C(=O)Nc2ccc(S(=O)(=O)Nc3onc(C)c3C)cc2)cc1 came out at 0.00607
